// values below are reported GI50
Tested on: SK-OV-3 ovarian
assay.method.text: NCI tumour cell line growth inhibition, 48 h

Worked cases, GI50 given:
compound=CN1CCN(c2ccc3nc(-c4cc(C(C)(C)C)c(O)c(C(C)(C)C)c4)[nH]c3c2)CC1 target_system="SK-OV-3 ovarian" result="8.83 µM"
compound="CCC(Sc1nnc2c3ccccc3n(CC)c2n1)C(=O)Nc1ccccc1OC (stereo not given)" target_system="SK-OV-3 ovarian" result="> 100 µM"
compound=COc1ccc2c(c1)CC[C@@H]1[C@@H]2CC[C@@]2(C)[C@H]1CC1(CCCCC1)[C@@H]2O target_system="SK-OV-3 ovarian" result="21.6 µM"
compound="COCCOC(=O)C1=C(C)NC2=C(C(=O)CC(c3ccccc3OC)C2)C1c1cccc(O)c1 (stereo not given)" target_system="SK-OV-3 ovarian" result="7.77 µM"

Below: the item to evaluate.
Lookup: Need GI50, item COc1ccc2[nH]cc(-c3nc(-c4cn(C)c5ccncc45)cs3)c2c1
Found: 19.4 µM
